Answer each item with its documented pKi.
# system.under.test: T1, human glucagon-like peptide 1 receptor (hGLP-1-R) (human, UniProt P43220 24-463)
# T1 construct: whole, on cells; The cAMP assay uses whole hGLP-1-R-293HEK cells (pcDNA3.1/Neo); also called GLP-1 receptor
# procedure.details: SPA competition, I-125 GLP-1 displacement, hGLP-1-R 293HEK membranes
Where no end group is shown, it is not given here. Side-chain parts run from the residue outwards. [ ]: non-standard residue; d: D form. maleimide = maleimide end of mPEG-20 kDa maleimide, which attaches the 20 kDa PEG to the Cys thiol; 1Nal = N[C@@H](Cc1cccc2ccccc12)C(=O)O; Aib = CC(C)(N)C(=O)O
Give bare numbers, as −log10 of the molar value.

Answered examples (3):
[[record]]
binder = "Y[Aib]EGTFTSDYSI[Aib]LDKIAQRAFVQWLIA[Aib]KGKKQEWKHQITQC([maleimide-mPEG 20 kDa])C([maleimide-mPEG 20 kDa])-NH2 [Aib2, Aib13, Aib29, Cys43(PEG20K), Cys44(PEG20K)-GIP (Example 3, PEGylated with mPEG-MAL)]"
value_reported = 8.05

[[record]]
binder = "Y[Aib]EGTFTSDYSI[Aib]LDKIAQRAFVQWLIA[Aib]KGKKQEWKHQITQ (not fully specified (C-terminus), Not PEGylated) [Example 2 (Aib2, Aib13, Aib29 GIP analog, 42 residues)]"
value_reported = 10.23

[[record]]
binder = "Y[Aib]EGTFTSDYSI[Aib]LDKIAQRA[1Nal]VQWLIA[Aib]KGKKQEWKHQITQC([acetamide-mPEG 20 kDa])C([acetamide-mPEG 20 kDa])-NH2"
value_reported = 8.21


Batch of 2 binders: report pKi for each.
1. Y[Aib]EGTFTSDYSI[Aib]LDKIAQRA[1Nal]VQWLIA[Aib]KGKKQEWKHQITQC([maleimide-mPEG 20 kDa])C([maleimide-mPEG 20 kDa])-NH2 (also called Ex 4) [Aib2, Aib13, Nal22, Aib29, Cys43(PEG20K), Cys44(PEG20K)-GIP (Example 4, PEGylated with mPEG-MAL)]
2. Y[Aib]EGTFTSDYSI[Aib]LDKIAQRA[1Nal]VQWLIA[Aib]KGKKQEWKHQITQ (not fully specified (C-terminus), Not PEGylated) [Example 1 (Aib2, Aib13, Nal22, Aib29 GIP analog, 42 residues)]

1. 8.28
2. 10.02

The values you see were collected from patent US20110237503A1.
